Data provenance is paper PMC9866314.

Assay: in vitro
Details: hamster
OBSERVATION_TYPE: CC50

The cases that follow already have their CC50 on record.
CO[C@@H]1C[C@@H](C[C@H]2CC[C@H](C)[C@H]([C@@H](C)C(=O)O)O2)O[C@]2(O[C@](C)([C@H]3CC[C@@](C)([C@@H]4O[C@@H]([C@H]5O[C@@](O)(CO)[C@H](C)C[C@@H]5C)C[C@@H]4C)O3)C[C@H]2C)[C@@H]1C	49.9 µM
NC(=O)c1ncn([C@@H]2O[C@H](CO)[C@@H](O)[C@H]2O)n1 [Ribavirin, reference compound]	> 100 µM
CC1=CC(C)(C)Nc2ccc(Cc3ccc4c(c3)C(C)=CC(C)(C)N4)cc21	> 100 µM
CCOC(=O)/C=C/[C@H](C[C@@H]1CCNC1=O)NC(=O)[C@@H](CC(=O)[C@@H](NC(=O)c1cc(C)on1)C(C)C)Cc1ccc(F)cc1 [Rupintrivir, reference compound]	> 100 µM

// next item, CC50 requested
# input Item O=C1CCCc2cc3c(cc21)CC1(C3)Cc2cc3c(cc2C1)C(=O)CCC3 has what recorded CC50?
# output > 100 µM

* * *

Tested on: FMDV serotype A (NP05)
Assay: microbe, parasite or virus in culture
Type: cell-based
Conditions: Foot-and-mouth disease virus, BHK-21, read-out: Antiviral Activity EC90
Hi! Could you tag entries with EC90 below 10 µM as true (1), and those at or above as false (0)? Much appreciated.

CO[C@@H]1C[C@@H](C[C@H]2CC[C@H](C)[C@H]([C@@H](C)C(=O)O)O2)O[C@]2(O[C@](C)([C@H]3CC[C@@](C)([C@@H]4O[C@@H]([C@H]5O[C@@](O)(CO)[C@H](C)C[C@@H]5C)C[C@@H]4C)O3)C[C@H]2C)[C@@H]1C	true (1)
O=C1CCCc2cc3c(cc21)CC1(C3)Cc2cc3c(cc2C1)C(=O)CCC3	false (0)
NC(=O)c1ncn([C@@H]2O[C@H](CO)[C@@H](O)[C@H]2O)n1 [Ribavirin, reference compound]	false (0)
CC1=CC(C)(C)Nc2ccc(Cc3ccc4c(c3)C(C)=CC(C)(C)N4)cc21	true (1)

Consider the additional compound presented here.
# input Could you please tell me whether EC90 recorded for CCOC(=O)/C=C/[C@H](C[C@@H]1CCNC1=O)NC(=O)[C@@H](CC(=O)[C@@H](NC(=O)c1cc(C)on1)C(C)C)Cc1ccc(F)cc1 [Rupintrivir, reference compound] is less than 10 µM?
# output false (0)
